# method: Pharmacokinetic study, intravenous bolus injection in rats
# Assay type: in vivo
# settings: Sprague Dawley, plasma, rat, dose 0.1 mg/kg, 2 hour post dose, read-out: Concentration in Rat Plasma after Bolus Injection, Mean
assay.readout: concentration at 2 hour (ng/mL)
Response body: numeric value in ng/mL, unit text excluded.

For `CC1=C[C@H]2[C@@]3(O)[C@H](C)C[C@]4(OC(=O)[C@@H](N)CC5CCCCC5)[C@H]([C@@H]3C=C(CO)C[C@]2(O)C1=O)C4(C)C` the compound record lists concentration at 2 hour as 5

---

# method: Pharmacokinetic study, intravenous bolus injection in rats
# Format: in vivo
# settings: Sprague Dawley, rat plasma, 0.1 mg/kg
assay.readout: MRT inf (min)
Response body: numeric value in min, unit text excluded.

For `CC1=C[C@H]2[C@@]3(O)[C@H](C)C[C@]4(OC(=O)[C@@H](N)CC5CCCCC5)[C@H]([C@@H]3C=C(CO)C[C@]2(O)C1=O)C4(C)C` the compound record lists MRT inf as 52.4

Just for reference, patent US20220411362A1 is where these values come from.
